Below, each entry is listed with its recorded TD50.
- test-protocol: Neurotoxicity in po dosed Sprague-Dawley rat by rotarod test
- Format: toxicity, organism-based
- experimental-context: in vivo
endpoint-name: TD50

{"compound": "CC(=O)N[C@H](CO)C(=O)NCc1ccc(N=C=S)cc1", "result": "> 250 mg/kg"}
{"compound": "C#CCOC[C@H](NC(C)=O)C(=O)NCc1ccccc1", "result": "> 30 mg/kg"}
{"compound": "CC(=O)N[C@H](COCCN=C=S)C(=O)NCc1ccccc1", "result": "> 30 mg/kg"}
{"compound": "C#Cc1ccc(CNC(=O)[C@@H](COC)NC(C)=O)cc1", "result": "< 30 mg/kg"}
{"compound": "CC(=O)N[C@@H](CO)C(=O)NCc1ccc(N=C=S)cc1", "result": "> 30 mg/kg"}
{"compound": "CC(=O)N[C@H](COCCN=[N+]=[N-])C(=O)NCc1ccccc1", "result": "> 30 mg/kg"}
{"compound": "C#CCOC[C@@H](NC(C)=O)C(=O)NCc1ccccc1", "result": "> 500 mg/kg"}
{"compound": "C#CCOC[C@@H](NC(C)=O)C(=O)NCc1ccc(N=C=S)cc1", "result": "> 30 mg/kg"}
{"compound": "COC[C@@H](NC(C)=O)C(=O)NCc1ccccc1 [LACOSAMIDE]", "result": "> 250 mg/kg"}

----------
- System: Mus musculus
- test-protocol: Anticonvulsant activity against maximal electroshock-induced seizures in ip dosed albino mouse assessed as time of peak effect
- Format: functional
Below, each entry is listed with its recorded Time.

{"structure-smiles-string": "CC(=O)N[C@H](COCCN=[N+]=[N-])C(=O)NCc1ccccc1", "target-entity": "Mus musculus", "Time (h)": 4}
{"structure-smiles-string": "CC(=O)N[C@@H](COCCN=C=S)C(=O)NCc1ccccc1", "target-entity": "Mus musculus", "Time (h)": 0.5}
{"structure-smiles-string": "CC(=O)N[C@H](COCCN=[N+]=[N-])C(=O)NCc1ccc(N=C=S)cc1", "target-entity": "Mus musculus", "Time (h)": 4}

----------
- target-entity: Dihydropyrimidinase-related protein 2 (Mus musculus)
- test-protocol: Binding affinity to CRMP2 in ICR mouse brain […] at 5 uM by Western blot analysis in presence of rhodamine-containing 4-(3-azidopropylcarbamoyl)-2-(3,6-bis(dimethylamino)xanthylium-9-yl)benzoate
- Format: tissue-based
The source made the active and inactive calls. The calls are words filed in the database; no cut-off is given here.
Classes used: active, inactive

{"structure-smiles-string": "C#Cc1ccc(CNC(=O)[C@H](COCCN=C=S)NC(C)=O)cc1", "class-assignment": "inactive"}
{"structure-smiles-string": "C#CCOC[C@@H](NC(C)=O)C(=O)NCc1ccc(N=C=S)cc1", "class-assignment": "active"}
{"structure-smiles-string": "C#Cc1ccc(CNC(=O)[C@@H](COCCN=C=S)NC(C)=O)cc1", "class-assignment": "inactive"}
{"structure-smiles-string": "C#CCOC[C@H](NC(C)=O)C(=O)NCc1ccc(N=C=S)cc1", "class-assignment": "active"}

----------
Below, each entry is listed with its recorded Time.
- Tested on: Mus musculus
- test-protocol: Neurotoxicity in ip dosed albino mouse assessed as time of peak effect by rotarod test
- Assay type: toxicity, organism-based
- experimental-context: in vivo

{"compound": "C#CCOC[C@@H](NC(C)=O)C(=O)NCc1ccccc1", "Time (h)": 0.25}
{"compound": "C#Cc1ccc(CNC(=O)[C@H](COC)NC(C)=O)cc1", "Time (h)": 0.5}
{"compound": "COC[C@@H](NC(C)=O)C(=O)NCc1ccccc1 [LACOSAMIDE]", "Time (h)": 0.25}
{"compound": "C#Cc1ccc(CNC(=O)[C@@H](COC)NC(C)=O)cc1", "Time (h)": 0.5}
{"compound": "CC(=O)N[C@H](COCCN=[N+]=[N-])C(=O)NCc1ccc(N=C=S)cc1", "Time (h)": 0.5}
{"compound": "CCC1(c2ccccc2)C(=O)NC(=O)NC1=O", "Time (h)": 0.5}
{"compound": "CCCC(CCC)C(=O)[O-].[Na+] [VALPROATE SODIUM]", "Time (h)": 0.25}
{"compound": "CC(=O)N[C@@H](COCCN=C=S)C(=O)NCc1ccccc1", "Time (h)": 0.5}
{"compound": "C#CCOC[C@@H](NC(C)=O)C(=O)NCc1ccc(N=C=S)cc1", "Time (h)": 0.25}
{"compound": "O=C1NC(=O)C(c2ccccc2)(c2ccccc2)N1", "Time (h)": 2}
{"compound": "CC(=O)N[C@H](COCCN=[N+]=[N-])C(=O)NCc1ccccc1", "Time (h)": 4}
{"compound": "CC(=O)N[C@H](CO)C(=O)NCc1ccc(N=C=S)cc1", "Time (h)": 0.25}

----------
Below, each entry is listed with its recorded Time.
- Tested on: Rattus norvegicus
- test-protocol: Anticonvulsant activity against maximal electroshock-induced seizures in po dosed Sprague-Dawley rat assessed as time of peak effect
- Type: functional

{"compound": "CCC1(c2ccccc2)C(=O)NC(=O)NC1=O [PHENOBARBITAL]", "target-entity": "Rattus norvegicus", "unit-annotation": "h", "Time": 5}
{"compound": "O=C1NC(=O)C(c2ccccc2)(c2ccccc2)N1 [PHENYTOIN]", "target-entity": "Rattus norvegicus", "unit-annotation": "h", "Time": 4}
{"compound": "COC[C@@H](NC(C)=O)C(=O)NCc1ccccc1 [LACOSAMIDE]", "target-entity": "Rattus norvegicus", "unit-annotation": "h", "Time": 0.5}
{"compound": "C#CCOC[C@@H](NC(C)=O)C(=O)NCc1ccccc1", "target-entity": "Rattus norvegicus", "unit-annotation": "h", "Time": 0.5}
{"compound": "CC(=O)N[C@@H](COCCN=C=S)C(=O)NCc1ccccc1", "target-entity": "Rattus norvegicus", "unit-annotation": "h", "Time": 4}
{"compound": "CCCC(CCC)C(=O)[O-].[Na+] [VALPROATE SODIUM]", "target-entity": "Rattus norvegicus", "unit-annotation": "h", "Time": 0.5}
{"compound": "CC(=O)N[C@H](CO)C(=O)NCc1ccc(N=C=S)cc1", "target-entity": "Rattus norvegicus", "unit-annotation": "h", "Time": 4}
{"compound": "CC(=O)N[C@H](COCCN=[N+]=[N-])C(=O)NCc1ccccc1", "target-entity": "Rattus norvegicus", "unit-annotation": "h", "Time": 0.25}
{"compound": "CC(=O)N[C@H](COCCN=C=S)C(=O)NCc1ccccc1", "target-entity": "Rattus norvegicus", "unit-annotation": "h", "Time": 4}

----------
- Tested on: Rattus norvegicus
- test-protocol: Neurotoxicity in po dosed Sprague-Dawley rat assessed as time of peak effect by rotarod test
- Assay type: toxicity, organism-based
- experimental-context: in vivo
Below, each entry is listed with its recorded Time.

{"molecule": "CCCC(CCC)C(=O)[O-].[Na+] [VALPROATE SODIUM]", "unit-annotation": "h", "Time": 0.5}
{"molecule": "COC[C@@H](NC(C)=O)C(=O)NCc1ccccc1 [LACOSAMIDE]", "unit-annotation": "h", "Time": 0.5}
{"molecule": "C#Cc1ccc(CNC(=O)[C@@H](COC)NC(C)=O)cc1", "unit-annotation": "h", "Time": 0.5}
{"molecule": "CCC1(c2ccccc2)C(=O)NC(=O)NC1=O [PHENOBARBITAL]", "unit-annotation": "h", "Time": 0.5}
{"molecule": "CC(=O)N[C@H](COCCN=C=S)C(=O)NCc1ccccc1", "unit-annotation": "h", "Time": 4}

----------
- test-protocol: Neurotoxicity in ip dosed albino mouse by rotarod test
- Type: toxicity, organism-based
- experimental-context: in vivo
Below, each entry is listed with its recorded TD50.
endpoint-name: TD50 (mg/kg)

{"structure-smiles-string": "CC(=O)N[C@H](COCCN=[N+]=[N-])C(=O)NCc1ccccc1", "quantitative-result": 100}
{"structure-smiles-string": "C#Cc1ccc(CNC(=O)[C@H](COC)NC(C)=O)cc1", "quantitative-result": 300}
{"structure-smiles-string": "CC(=O)N[C@H](COCCN=C=S)C(=O)NCc1ccccc1", "quantitative-result": 30}

----------
Below, each entry is listed with its recorded log10(ED50).
- System: Mus musculus
- test-protocol: Anticonvulsant activity in ip dosed albino mouse assessed as protection against maximal electroshock-induced seizures
- Type: functional
endpoint-name: log10(ED50) (log10 of the value in mg/kg)

{"compound": "CCC1(c2ccccc2)C(=O)NC(=O)NC1=O [PHENOBARBITAL]", "log10(ED50)": 1.34}
{"compound": "C#Cc1ccc(CNC(=O)[C@@H](COC)NC(C)=O)cc1", "log10(ED50)": 0.48}
{"compound": "CC(=O)N[C@H](CO)C(=O)NCc1ccc(N=C=S)cc1", "log10(ED50)": 1.38}
{"compound": "CC(=O)N[C@H](COCCN=[N+]=[N-])C(=O)NCc1ccc(N=C=S)cc1", "log10(ED50)": 2.00}
{"compound": "CC(=O)N[C@@H](CO)C(=O)NCc1ccc(N=C=S)cc1", "log10(ED50)": 2.00}
{"compound": "CC(=O)N[C@H](COCCN=[N+]=[N-])C(=O)NCc1ccccc1", "log10(ED50)": 2.00}
{"compound": "CCCC(CCC)C(=O)[O-].[Na+] [VALPROATE SODIUM]", "log10(ED50)": 2.43}
{"compound": "CC(=O)N[C@@H](COCCN=[N+]=[N-])C(=O)NCc1ccc(N=C=S)cc1", "log10(ED50)": 2.00}
{"compound": "C#CCOC[C@@H](NC(C)=O)C(=O)NCc1ccccc1", "log10(ED50)": 1.20}
{"compound": "C#CCOC[C@@H](NC(C)=O)C(=O)NCc1ccc(N=C=S)cc1", "log10(ED50)": 1.65}
